Ref: patent US10844023B2

Assay: In vivo pharmacokinetics in mice
Conditions: mouse, plasma, intramuscular, 1 mg/kg, IM, from total concentration and protein binding, read-out: free drug concentration 2 hours after IM administration
test_readout: concentration at 2 h

Query (compound): `CCn1c(CCCNC(=O)NC2CCOCC2)nnc1C1CC1` ; field requested: concentration at 2 h
~6.66 ng/mL

---

System: Mfn2 null MEFs
Test: Mitochondrial elongation (aspect ratio) fusogenicity assay
Assay type: cell-based, mouse
Conditions: Mfn2 null MEFs, overnight; treatment with 1 μM compound (footnote)
test_readout: Aspect ratio (MEAN ± SEM)
Lab note: write the figure by itself, no unit.

See these solved cases before continuing.
molecule | endpoint_value
CCOc1ccccc1NC(=O)CSCc1cc(=O)c2ccc(C)c(C)c2[nH]1 [drawing 248] | 3.7
Cc1ccc(-n2nnnc2SC(C)c2nc(-c3nnc[nH]3)no2)cc1 (centres unmarked) [drawing 215] | 3.4
CC(Sc1nnc(N2CCOCC2)n1Cc1ccccc1)C(=O)Nc1ccc2c(c1)OCCO2 (centres unmarked) [drawing 226] | 6.0
O=C(CSCCc1ccccn1)Nc1ccc(Cl)c(Cl)c1 [drawing 205] | 2.8
Cc1nc[nH]c1CSCCNC(=O)C1CCN(C(=O)C2CCC2)CC1 [drawing 220] | 2.9
CC(Sc1nnc(N2CCOCC2)n1Cc1ccccc1)C(=O)Nc1ccc2c(c1)OCO2 (centres unmarked) [drawing 242] | 2.5
Cc1ccc(C(=O)C(C)Sc2nnc3c(=O)n(-c4ccc(C)c(C)c4)ccn23)cc1C (centres unmarked) [drawing 240] | 3.9

Moving on to the next molecule.
Query (molecule): COc1ccc2c(c1)C1(SCCN1C(=O)c1ccccc1C)C(=O)N2Cc1cccc(C(F)(F)F)c1 (centres unmarked) [drawing 210] ; field requested: Aspect ratio (MEAN ± SEM)
3.5
